The entries below come with measured inhibition at 10 µM values attached.
# system_under_test: pro-protein convertase of the subtype nine binding to recombinant LDLR-AB domain (Homo sapiens)
# Sequence (Q8NBP7 153-692): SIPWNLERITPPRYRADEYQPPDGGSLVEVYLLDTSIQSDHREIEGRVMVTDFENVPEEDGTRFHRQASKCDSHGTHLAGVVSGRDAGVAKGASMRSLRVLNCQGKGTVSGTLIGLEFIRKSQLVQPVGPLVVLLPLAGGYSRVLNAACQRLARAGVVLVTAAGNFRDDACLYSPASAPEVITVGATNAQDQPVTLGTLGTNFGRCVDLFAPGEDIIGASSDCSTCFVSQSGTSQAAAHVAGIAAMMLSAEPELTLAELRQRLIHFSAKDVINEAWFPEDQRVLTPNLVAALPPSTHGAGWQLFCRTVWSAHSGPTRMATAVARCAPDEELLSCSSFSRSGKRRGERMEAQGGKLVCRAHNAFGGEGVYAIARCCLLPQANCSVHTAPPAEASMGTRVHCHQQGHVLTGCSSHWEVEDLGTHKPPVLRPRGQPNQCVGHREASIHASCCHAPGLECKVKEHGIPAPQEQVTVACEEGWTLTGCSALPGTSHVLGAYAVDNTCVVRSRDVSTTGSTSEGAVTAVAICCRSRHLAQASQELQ
# Sequence (Q8NBP7 31-152 partner limits assumed): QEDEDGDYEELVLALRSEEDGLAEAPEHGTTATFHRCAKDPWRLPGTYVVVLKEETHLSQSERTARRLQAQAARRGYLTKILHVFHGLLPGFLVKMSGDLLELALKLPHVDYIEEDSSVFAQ
# method_notes: in vitro quantitative solid phase binding assay (ELISA) of the subtype nine pro-protein convertase to immobilized LDLR
# experimental_setup: Concentration 10 μM
experimental_endpoint: inhibition at 10 µM (%)

>>> numeric_value("CCC(=NOCc1ccc(C(F)(F)F)cc1)c1ccc(NCC(=O)NCC2CCOCC2)nc1 [Example 23]")
42
>>> numeric_value("Cc1cc(C(Cc2ccsc2)=NOCc2ccc(C(F)(F)F)cc2)ccc1OCC(=O)NCC1CCOCC1 [Example 16]")
35
>>> numeric_value("Cc1ccc(CON=C(Cc2ccccc2)c2ccc(OCC(=O)NCC3CCOCC3)c(C)c2)cc1 [Example 32]")
35
>>> numeric_value("O=C(COc1ccc(C=NOCc2ccc(C(F)(F)F)cc2)cc1)NCC1CCOCC1 [Example 17]")
19
